Value source: ChEMBL document CHEMBL1909046

- study.target: Muscarinic acetylcholine receptor M4 (Homo sapiens, UniProt P08173); note: in other assays of this panel Not Active means under 50% inhibition at 10 µM
- Sequence (P08173 whole entry): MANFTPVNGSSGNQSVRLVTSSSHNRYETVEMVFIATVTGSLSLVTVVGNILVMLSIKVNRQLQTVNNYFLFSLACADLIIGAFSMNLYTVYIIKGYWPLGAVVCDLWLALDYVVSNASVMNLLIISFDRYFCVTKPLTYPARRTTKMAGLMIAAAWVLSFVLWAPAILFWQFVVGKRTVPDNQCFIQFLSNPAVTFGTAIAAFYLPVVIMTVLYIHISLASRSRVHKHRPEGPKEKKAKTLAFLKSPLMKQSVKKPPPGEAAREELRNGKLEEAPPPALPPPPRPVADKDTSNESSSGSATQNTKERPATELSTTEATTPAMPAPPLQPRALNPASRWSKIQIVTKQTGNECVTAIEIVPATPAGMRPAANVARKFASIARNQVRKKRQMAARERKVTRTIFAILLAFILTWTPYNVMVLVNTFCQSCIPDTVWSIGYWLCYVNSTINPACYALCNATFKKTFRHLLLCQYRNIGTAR
- Format: cell membranes, CHO-K1, Membrane
- run.conditions: read-out: Ki
measurement.name: pKi
Value format note: pKi is -log10 of concentration (mol/L); just state the number.

Please give the documented pKi of OCCN1CCN(CCCN2c3ccccc3Sc3ccc(C(F)(F)F)cc32)CC1
6.32

###

- study.target: Neutrophil elastase (Homo sapiens); note: in other assays of this panel Not Active means under 50% inhibition at 10 µM;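 note: inhibition of neutrophil elastase enzyme activity, measured with a p-nitroanilide-linked peptide substrate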
- Sequence (P08246 whole entry): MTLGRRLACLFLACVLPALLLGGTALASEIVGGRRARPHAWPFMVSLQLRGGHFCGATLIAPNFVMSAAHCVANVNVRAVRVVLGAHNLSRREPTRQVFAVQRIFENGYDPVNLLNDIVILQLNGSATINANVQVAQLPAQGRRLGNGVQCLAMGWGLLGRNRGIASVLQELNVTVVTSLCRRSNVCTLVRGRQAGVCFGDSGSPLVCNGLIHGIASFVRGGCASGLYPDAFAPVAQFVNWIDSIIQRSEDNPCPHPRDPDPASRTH
- Type: tissue-based
measurement.name: IC50

Worked cases, answers included:
CNC(=C[N+](=O)[O-])NCCSCc1csc(CN(C)C)n1 [NIZATIDINE]
Not Active
COc1ccccc1OCC(O)COC(N)=O (stereo unspecified) [METHOCARBAMOL]
Not Active
C#CCN(C)[C@H](C)Cc1ccccc1 [SELEGILINE]
Not Active
O=c1cc(-c2ccccc2)oc2ccc3ccccc3c12 [BETA-NAPHTHOFLAVONE]
Not Active
CN[C@@H]1[C@H](O)[C@H](NC)[C@H]2O[C@@]3(O)C(=O)C[C@@H](C)O[C@H]3O[C@@H]2[C@H]1O [SPECTINOMYCIN]
Not Active
[N-]=[N+]=CC(=O)OC[C@H](N)C(=O)O [AZASERINE]
Not Active
CCOC(=O)[C@H](CCc1ccccc1)N[C@@H](C)C(=O)N1CCC[C@H]1C(=O)O
Not Active
CC(C)(Oc1ccc(C2CC2(Cl)Cl)cc1)C(=O)O (stereo unspecified) [CIPROFIBRATE]
Not Active

Output IC50 of CC(=O)O[C@H]1C[C@@H]2CC[C@@H]3[C@H](CC[C@@]4(C)[C@H]3C[C@H]([N+]3(C)CCCCC3)[C@@H]4OC(C)=O)[C@@]2(C)C[C@@H]1N1CCCCC1.[Br-] [VECURONIUM BROMIDE]
Not Active

For the molecule C[C@]12CC[C@H]3[C@@H](CCC4=CC(=O)CC[C@@]43C)[C@@H]1CC[C@@H]2O [TESTOSTERONE] , give its measured IC50 value.
Not Active

# return recorded IC50 for input NC[C@H]1O[C@H](O[C@H]2[C@H](O)[C@@H](O[C@H]3O[C@H](CO)[C@@H](O)[C@H](N)[C@H]3O)[C@H](N)C[C@@H]2N)[C@H](N)C[C@@H]1O [TOBRAMYCIN]
Not Active

Let me know recorded IC50 for CC(=O)O[C@]1(C(C)=O)CC[C@H]2[C@@H]3C=C(Cl)C4=CC(=O)[C@@H]5C[C@@H]5[C@]4(C)[C@H]3CC[C@@]21C [CYPROTERONE ACETATE] , thanks.
Not Active

Determine from records and report IC50 for CCCc1nn(C)c2c(=O)[nH]c(-c3cc(S(=O)(=O)N4CCN(C)CC4)ccc3OCC)nc12
Not Active

Report IC50 for COc1cc(C(=O)NS(=O)(=O)c2ccccc2C)ccc1Cc1cn(C)c2ccc(NC(=O)OC3CCCC3)cc12 [ZAFIRLUKAST]
Not Active

Look up and state reported IC50 for CCc1oc2ccccc2c1C(=O)c1cc(Br)c(O)c(Br)c1 [BENZBROMARONE]
Not Active

Quote IC50 reported for CCCCCC[C@H]1C(=O)O[C@H](C)[C@H](NC(=O)c2cccc(NC=O)c2O)C(=O)O[C@@H](C)[C@@H]1OC(=O)CC(C)C [ANTIMYCIN A] please.
Not Active

###

- study.target: Protein kinase C alpha type (Homo sapiens); note: in other assays of this panel Not Active means under 50% inhibition at 10 µM;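 note: inhibition of PKCalpha kinase activity measured in an enzyme assay with histone as the phosphorylation substrate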
- Type: cell-based
- run.conditions: sf9
measurement.name: IC50

CCC(=O)O[C@H]1[C@H](O[C@@H]2[C@@H](C)[C@H](O[C@H]3C[C@@](C)(OC)[C@@H](O)[C@H](C)O3)[C@@H](C)C(=O)O[C@H](CC)[C@@](C)(O)[C@H](O)[C@@H](C)C(=O)[C@H](C)C[C@@]2(C)O)O[C@H](C)C[C@@H]1N(C)C [ERYTHROMYCIN PROPIONATE]
Not Active
CNC(=C[N+](=O)[O-])NCCSCc1csc(CN(C)C)n1
Not Active
OCCN1CCN(CCCN2c3ccccc3Sc3ccc(Cl)cc32)CC1
Not Active
CCOC(=O)C1=C(C)NC(C)=C(C(=O)OC)C1c1cccc(Cl)c1Cl (centres undefined)
Not Active

###

- study.target: Leukotriene C4 synthase (Cavia porcellus, UniProt A6XA80); note: in other assays of this panel Not Active means under 50% inhibition at 10 µM
- Sequence (A6XA80 whole entry): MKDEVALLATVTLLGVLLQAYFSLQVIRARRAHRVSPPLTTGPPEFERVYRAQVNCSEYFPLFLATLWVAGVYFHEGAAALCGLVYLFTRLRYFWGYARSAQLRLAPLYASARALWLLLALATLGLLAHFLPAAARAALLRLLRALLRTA
- Format: tissue-based, Lung
measurement.name: IC50

Reference set, count: 5
COc1ccc2cc(CCC(C)=O)ccc2c1
Not Active
OCCO
Not Active
Cc1c(N(C)CS(=O)(=O)[O-])c(=O)n(-c2ccccc2)n1C.[Na+] [DIPYRONE SODIUM]
Not Active
CC(C)(Sc1cc(C(C)(C)C)c(O)c(C(C)(C)C)c1)Sc1cc(C(C)(C)C)c(O)c(C(C)(C)C)c1
Not Active
CCc1oc2ccccc2c1C(=O)c1cc(Br)c(O)c(Br)c1
Not Active

GET IC50 | system: Leukotriene C4 synthase (Cavia porcellus, UniProt A6XA80) | item: COc1cc(C(=O)NS(=O)(=O)c2ccccc2C)ccc1Cc1cn(C)c2ccc(NC(=O)OC3CCCC3)cc12; note: in other assays of this panel Not Active means under 50% inhibition at 10 µM
Not Active

Write down measured IC50 (Leukotriene C4 synthase (Cavia porcellus, UniProt A6XA80)) for this molecule. C=C1/C(=C\C=C2/CCC[C@]3(C)[C@@H]([C@H](C)CCCC(C)C)CC[C@@H]23)C[C@@H](O)C[C@@H]1O
Not Active

State measured IC50 of the molecule CCN(CC)CC#CCOC(=O)C(O)(c1ccccc1)C1CCCCC1 (centres undefined) with Leukotriene C4 synthase (Cavia porcellus, UniProt A6XA80).
Not Active

Recall the reported IC50 of COc1ccc(CN2CCNCC2)c(OC)c1OC on Leukotriene C4 synthase (Cavia porcellus, UniProt A6XA80) and write it down.
Not Active

Name the value of IC50 reported for OCCN1CCN(CCCN2c3ccccc3Sc3ccc(Cl)cc32)CC1 when tested on Leukotriene C4 synthase (Cavia porcellus, UniProt A6XA80). Note: in other assays of this panel Not Active means under 50% inhibition at 10 µM.
Not Active

For Leukotriene C4 synthase (Cavia porcellus, UniProt A6XA80), give IC50 of the listed molecule: C[C@H](C(=O)O)c1cccc(C(=O)c2ccccc2)c1
Not Active

Report IC50 under test system Leukotriene C4 synthase (Cavia porcellus, UniProt A6XA80) for CCS(=O)(=O)CCn1c([N+](=O)[O-])cnc1C .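 Note: enzyme inhibition assay of leukotriene C4 synthase, using LTA4 as the substrate.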 Note: in other assays of this panel Not Active means under 50% inhibition at 10 µM.
Not Active

State the measured IC50 (Leukotriene C4 synthase (Cavia porcellus, UniProt A6XA80)) of CS(=O)(=O)OCCCCOS(C)(=O)=O
Not Active

With Leukotriene C4 synthase (Cavia porcellus, UniProt A6XA80) as the test system, provide measured IC50 for this molecule: C[C@H]([C@](O)(Cn1cncn1)c1ccc(F)cc1F)S(C)(=O)=O
Not Active

Send back Leukotriene C4 synthase (Cavia porcellus, UniProt A6XA80) IC50 of CC(=O)OCC(CCn1cnc2cnc(N)nc21)COC(C)=O only.
Not Active

Fill: IC50 (Leukotriene C4 synthase (Cavia porcellus, UniProt A6XA80)) for this molecule CO[C@@]1(NC(=O)CSCC#N)C(=O)N2C(C(=O)O)=C(CSc3nnnn3C)CS[C@@H]21
Not Active

State IC50 (Leukotriene C4 synthase (Cavia porcellus, UniProt A6XA80)) of Nc1ccc(S(=O)(=O)Nc2ncccn2)cc1 .
Not Active

Find IC50 for CN1C2CCCC1CC(NC(=O)c1nn(C)c3ccccc13)C2 (centres undefined) on Leukotriene C4 synthase (Cavia porcellus, UniProt A6XA80) and write it down.
Not Active

Give measured IC50 for CC(C)(Oc1ccc(C2CC2(Cl)Cl)cc1)C(=O)O (centres undefined) [CIPROFIBRATE] (Leukotriene C4 synthase (Cavia porcellus, UniProt A6XA80)).
Not Active

###

- method.description: DRUGMATRIX: Imidazoline I2, Central radioligand binding (ligand: [3H] Idazoxan)
- Type: cell membranes, Rattus norvegicus, Wistar, Cerebral cortex, Membrane
- run.conditions: Not Active = under 50% inhibition at 10 µM
measurement.name: Ki

CS(=O)(=O)OCCCCOS(C)(=O)=O [BUSULFAN]
Not Active
CCN[C@@H](C)Cc1cccc(C(F)(F)F)c1 [DEXFENFLURAMINE]
Not Active
C=C1/C(=C\C=C2/CCC[C@]3(C)[C@@H]([C@H](C)CCCC(C)C)CC[C@@H]23)C[C@@H](O)C[C@@H]1O [ALFACALCIDOL]
Not Active
OCCN1CCN(CCCN2c3ccccc3Sc3ccc(Cl)cc32)CC1 [PERPHENAZINE]
Not Active

###

- method.description: DRUGMATRIX: Calcium Channel Type L, Benzothiazepine radioligand binding (ligand: [3H] Diltiazem)
- Assay type: cell membranes, Rattus norvegicus, Wistar, Brain, Membrane
- run.conditions: Not Active = under 50% inhibition at 10 µM
measurement.name: Ki

O=P(O)(O)C(O)(Cc1cccnc1)P(=O)(O)O
Not Active
COc1ccc(/C=C/C(=O)Nc2ccccc2C(=O)O)cc1OC
Not Active
CCn1cc(C(=O)O)c(=O)c2cc(F)c(N3CCNCC3)nc21
Not Active
CCCc1nn(C)c2c(=O)[nH]c(-c3cc(S(=O)(=O)N4CCN(C)CC4)ccc3OCC)nc12
Not Active
CCN[C@@H](C)Cc1cccc(C(F)(F)F)c1
Not Active

Kindly indicate its recorded Ki. Item: O=P1(N(CCCl)CCCl)NCCCO1 (centres undefined) [CYCLOPHOSPHAMIDE ANHYDROUS]
Not Active

Dear colleague, please send me the reported Ki for COc1cc(CNC(=O)CCCC/C=C/C(C)C)ccc1O when you can.
Not Active

Kindly indicate its recorded Ki. Item: C=C(C)[C@H]1Cc2c(ccc3c2O[C@@H]2COc4cc(OC)c(OC)cc4[C@@H]2C3=O)O1
Not Active

Recall and state the measured Ki for C=C(CC)C(=O)c1ccc(OCC(=O)O)c(Cl)c1Cl .
Not Active

Entry C[C@H](C(=O)O)c1cccc(C(=O)c2ccccc2)c1 needs its Ki filled in; supply it.
Not Active

Note down Ki recorded for CCCCC1C(=O)N(c2ccccc2)N(c2ccccc2)C1=O
Not Active

Identify the reported Ki for the following entry. CN[C@@H]1[C@H](O)[C@H](NC)[C@H]2O[C@@]3(O)C(=O)C[C@@H](C)O[C@H]3O[C@@H]2[C@H]1O
Not Active

Complete the entry with Ki for CC(C)(C)NC[C@H](O)COc1nsnc1N1CCOCC1
Not Active

Complete the entry with Ki for O=c1cc(-c2ccccc2)oc2ccc3ccccc3c12
Not Active

Identify the reported Ki for the following entry. C[C@]12CCC(=O)C=C1CC[C@@H]1[C@@H]2[C@@H](O)C[C@@]2(C)[C@H]1CC[C@]2(O)C(=O)CO [HYDROCORTISONE]
Not Active

Give Ki for the following molecule: O=C(O)Cc1ccc(-c2ccccc2)cc1
Not Active

For the molecule COc1ncnc(NS(=O)(=O)c2ccc(N)cc2)c1OC , give its measured Ki value.
Not Active

Specify Ki for CCS(=O)(=O)CCn1c([N+](=O)[O-])cnc1C and stop.
Not Active

Supply reported Ki belonging to this molecule: O=C(O)c1cccnc1
Not Active
